# experimental_details: Clearance in female BALB/c mouse at 1 mg/kg, iv measured after 24 hrs by LC-MS/MS analysis
# Format: ADME, organism-based
# test_parameters: in vivo
assay_metric: clearance (mL/min/kg)

CCn1c(-c2cccnc2[C@H](C)OC)c2c3cc(ccc31)-c1csc(n1)C[C@H](NC(=O)[C@H]1C[C@@H]1C)C(=O)N1CCC[C@H](N1)C(=O)OCC(C)(C)C2	10

A. CCn1c(-c2cccnc2[C@H](C)OC)c2c3cc(ccc31)-c1csc(n1)C[C@H](NC(=O)[C@H](C(C)C)N(C)C(C)=O)C(=O)N1CCC[C@H](N1)C(=O)OCC(C)(C)C2
B. CCn1c(-c2cccnc2[C@H](C)OC)c2c3cc(ccc31)-c1csc(n1)C[C@H](NC(=O)[C@H](C(C)C)N(C)C(=O)N1CC(OC)C1)C(=O)N1CCC[C@H](N1)C(=O)OCC(C)(C)C2
Higher clearance between A and B ? Returns: label corresponding to the selected item. A
(A: 95 mL/min/kg, B: 33.3 mL/min/kg)

###

IC50 for assorted compounds
# Tested on: ASPC1
# experimental_details: Cytotoxicity against human ASPC1 cells harboring KRAS G12D mutant cultured as 2D cells assessed as reduction in cell viability incubated for 120 hrs by CellTiter-Glo luminescence assay
# Assay type: functional, cell-based
# test_parameters: ASPC1, 120 h
Report the value in nM with no unit label.

Which IC50 value belongs to CCn1c(-c2cccnc2[C@H](C)OC)c2c3cc(ccc31)-c1csc(n1)C[C@H](NC(=O)[C@H](C(C)C)N(C)C(=O)N1CCC1)C(=O)N1CCC[C@H](N1)C(=O)OCC(C)(C)C2 ? 37

Could you tell me which IC50 is on file for CCn1c(-c2cccnc2[C@H](C)OC)c2c3cc(ccc31)-c1csc(n1)C[C@H](NC(=O)[C@H](C(C)C)N(C)C(=O)N1CC(OC)C1)C(=O)N1CCC[C@H](N1)C(=O)OCC(C)(C)C2 ? 76

What does the data say about its IC50? Entry: CCn1c(-c2cccnc2[C@H](C)OC)c2c3cc(ccc31)-c1csc(n1)C[C@H](NC(=O)[C@H](C(C)C)N(C)C(=O)OC)C(=O)N1CCC[C@H](N1)C(=O)OCC(C)(C)C2 400

Given the entry CCn1c(-c2cccnc2[C@H](C)OC)c2c3cc(ccc31)-c1csc(n1)C[C@H](NC(=O)[C@H](C(C)C)N(C)C(=O)N(C)C)C(=O)N1CCC[C@H](N1)C(=O)OCC(C)(C)C2 , report its measured IC50. 75

###

# Tested on: CAPAN-1
# experimental_details: Cytotoxicity against human CAPAN-1 cells harboring KRAS G12V mutant cultured as 2D cells assessed as reduction in cell viability incubated for 120 hrs by CellTiter-Glo luminescence assay
# Assay type: functional, cell-based
# test_parameters: CAPAN-1, 120 h
assay_metric: pEC50
Note: pEC50 values are expressed as the negative base-10 logarithm of concentration in M.

Requested read-out: pEC50. Entry: CCn1c(-c2cccnc2[C@H](C)OC)c2c3cc(ccc31)-c1csc(n1)C[C@H](NC(=O)[C@H](C(C)C)N(C)C(=O)N1CC(OC)C1)C(=O)N1CCC[C@H](N1)C(=O)OCC(C)(C)C2 7.80

pEC50 for CCn1c(-c2cccnc2[C@H](C)OC)c2c3cc(ccc31)-c1csc(n1)C[C@H](NC(=O)C1CC1)C(=O)N1CCC[C@H](N1)C(=O)OCC(C)(C)C2 ? 6.31

Look up pEC50 for this compound: CCn1c(-c2cc(N3CCN(CCOC)CC3)cnc2[C@H](C)OC)c2c3cc(ccc31)-c1csc(n1)C[C@H](NC(=O)[C@H]1C[C@@H]1C)C(=O)N1CCC[C@H](N1)C(=O)OCC(C)(C)C2 8.55

Look at this compound and give its reported pEC50. CCn1c(-c2cccnc2[C@H](C)OC)c2c3cc(ccc31)-c1csc(n1)C[C@H](NC(=O)[C@H]1CCO1)C(=O)N1CCC[C@H](N1)C(=O)OCC(C)(C)C2 6.21

Tell me the measured pEC50 of CCn1c(-c2cc(N3CCN(C)CC3)cnc2[C@H](C)OC)c2c3cc(ccc31)-c1csc(n1)C[C@H](NC(=O)[C@H]1[C@@H]3COC[C@@H]31)C(=O)N1CCC[C@H](N1)C(=O)OCC(C)(C)C2 , please. 8.96

###

# experimental_details: Oral bioavailability in female BALB/c mouse blood at 10 mg/kg measured after 24 hrs by LC-MS/MS analysis
# Type: ADME, organism-based
assay_metric: bioavailability (%)

CCn1c(-c2cc(N3CCN(C4CC4)CC3)cnc2[C@H](C)OC)c2c3cc(ccc31)-c1csc(n1)C[C@H](NC(=O)[C@H]1[C@@H]3COC[C@@H]31)C(=O)N1CCC[C@H](N1)C(=O)OCC(C)(C)C2	63

1. CCn1c(-c2cc(N3CCN(CCOC)CC3)cnc2[C@H](C)OC)c2c3cc(ccc31)-c1csc(n1)C[C@H](NC(=O)[C@H]1C[C@@H]1C)C(=O)N1CCC[C@H](N1)C(=O)OCC(C)(C)C2
2. CCn1c(-c2cc(N3CC4CC(C3)N4C)cnc2[C@H](C)OC)c2c3cc(ccc31)-c1csc(n1)C[C@H](NC(=O)[C@H]1C[C@@H]1C)C(=O)N1CCC[C@H](N1)C(=O)OCC(C)(C)C2
3. CCn1c(-c2cc(N3CCN(C4COC4)CC3)cnc2[C@H](C)OC)c2c3cc(ccc31)-c1csc(n1)C[C@H](NC(=O)[C@H]1C[C@@H]1C)C(=O)N1CCC[C@H](N1)C(=O)OCC(C)(C)C2
4. CCn1c(-c2cc(N3CCN(C)CC3)cnc2[C@H](C)OC)c2c3cc(ccc31)-c1csc(n1)C[C@H](NC(=O)[C@H]1C[C@@H]1C)C(=O)N1CCC[C@H](N1)C(=O)OCC(C)(C)C2
Returns the items ordered by bioavailability, from maximum to minimum. Note for the reader: the ranking is given by listing the labels in the order requested. 1, 3, 4, 2

###

# experimental_details: Clearance in female BALB/c mouse plasma at 1 mg/kg, iv measured after 24 hrs by LC-MS/MS analysis
# Assay type: ADME, organism-based
assay_metric: clearance (mL/min/kg)

Reference set (2 entries):
CCn1c(-c2cc(N3CCN(C4CC4)CC3)cnc2[C@H](C)OC)c2c3cc(ccc31)-c1csc(n1)C[C@H](NC(=O)[C@H]1[C@@H]3COC[C@@H]31)C(=O)N1CCC[C@H](N1)C(=O)OCC(C)(C)C2	6.67
CCn1c(-c2cc(N3CCN(C)CC3)cnc2[C@H](C)OC)c2c3cc(ccc31)-c1csc(n1)C[C@H](NC(=O)[C@H]1C[C@@H]1C)C(=O)N1CCC[C@H](N1)C(=O)OCC(C)(C)C2	40

I. CCn1c(-c2cc(N3CCN(CCOC)CC3)cnc2[C@H](C)OC)c2c3cc(ccc31)-c1csc(n1)C[C@H](NC(=O)[C@H]1C[C@@H]1C)C(=O)N1CCC[C@H](N1)C(=O)OCC(C)(C)C2
II. CCn1c(-c2cc(N3CCN(C4COC4)CC3)cnc2[C@H](C)OC)c2c3cc(ccc31)-c1csc(n1)C[C@H](NC(=O)[C@H]1C[C@@H]1C)C(=O)N1CCC[C@H](N1)C(=O)OCC(C)(C)C2
Select the item with the higher value of clearance from the options I and II listed. Label of pick, please. II

###

# target_system: Sodium channel protein type 5 subunit alpha (Homo sapiens, UniProt Q14524)
# Sequence (Q14524 whole entry): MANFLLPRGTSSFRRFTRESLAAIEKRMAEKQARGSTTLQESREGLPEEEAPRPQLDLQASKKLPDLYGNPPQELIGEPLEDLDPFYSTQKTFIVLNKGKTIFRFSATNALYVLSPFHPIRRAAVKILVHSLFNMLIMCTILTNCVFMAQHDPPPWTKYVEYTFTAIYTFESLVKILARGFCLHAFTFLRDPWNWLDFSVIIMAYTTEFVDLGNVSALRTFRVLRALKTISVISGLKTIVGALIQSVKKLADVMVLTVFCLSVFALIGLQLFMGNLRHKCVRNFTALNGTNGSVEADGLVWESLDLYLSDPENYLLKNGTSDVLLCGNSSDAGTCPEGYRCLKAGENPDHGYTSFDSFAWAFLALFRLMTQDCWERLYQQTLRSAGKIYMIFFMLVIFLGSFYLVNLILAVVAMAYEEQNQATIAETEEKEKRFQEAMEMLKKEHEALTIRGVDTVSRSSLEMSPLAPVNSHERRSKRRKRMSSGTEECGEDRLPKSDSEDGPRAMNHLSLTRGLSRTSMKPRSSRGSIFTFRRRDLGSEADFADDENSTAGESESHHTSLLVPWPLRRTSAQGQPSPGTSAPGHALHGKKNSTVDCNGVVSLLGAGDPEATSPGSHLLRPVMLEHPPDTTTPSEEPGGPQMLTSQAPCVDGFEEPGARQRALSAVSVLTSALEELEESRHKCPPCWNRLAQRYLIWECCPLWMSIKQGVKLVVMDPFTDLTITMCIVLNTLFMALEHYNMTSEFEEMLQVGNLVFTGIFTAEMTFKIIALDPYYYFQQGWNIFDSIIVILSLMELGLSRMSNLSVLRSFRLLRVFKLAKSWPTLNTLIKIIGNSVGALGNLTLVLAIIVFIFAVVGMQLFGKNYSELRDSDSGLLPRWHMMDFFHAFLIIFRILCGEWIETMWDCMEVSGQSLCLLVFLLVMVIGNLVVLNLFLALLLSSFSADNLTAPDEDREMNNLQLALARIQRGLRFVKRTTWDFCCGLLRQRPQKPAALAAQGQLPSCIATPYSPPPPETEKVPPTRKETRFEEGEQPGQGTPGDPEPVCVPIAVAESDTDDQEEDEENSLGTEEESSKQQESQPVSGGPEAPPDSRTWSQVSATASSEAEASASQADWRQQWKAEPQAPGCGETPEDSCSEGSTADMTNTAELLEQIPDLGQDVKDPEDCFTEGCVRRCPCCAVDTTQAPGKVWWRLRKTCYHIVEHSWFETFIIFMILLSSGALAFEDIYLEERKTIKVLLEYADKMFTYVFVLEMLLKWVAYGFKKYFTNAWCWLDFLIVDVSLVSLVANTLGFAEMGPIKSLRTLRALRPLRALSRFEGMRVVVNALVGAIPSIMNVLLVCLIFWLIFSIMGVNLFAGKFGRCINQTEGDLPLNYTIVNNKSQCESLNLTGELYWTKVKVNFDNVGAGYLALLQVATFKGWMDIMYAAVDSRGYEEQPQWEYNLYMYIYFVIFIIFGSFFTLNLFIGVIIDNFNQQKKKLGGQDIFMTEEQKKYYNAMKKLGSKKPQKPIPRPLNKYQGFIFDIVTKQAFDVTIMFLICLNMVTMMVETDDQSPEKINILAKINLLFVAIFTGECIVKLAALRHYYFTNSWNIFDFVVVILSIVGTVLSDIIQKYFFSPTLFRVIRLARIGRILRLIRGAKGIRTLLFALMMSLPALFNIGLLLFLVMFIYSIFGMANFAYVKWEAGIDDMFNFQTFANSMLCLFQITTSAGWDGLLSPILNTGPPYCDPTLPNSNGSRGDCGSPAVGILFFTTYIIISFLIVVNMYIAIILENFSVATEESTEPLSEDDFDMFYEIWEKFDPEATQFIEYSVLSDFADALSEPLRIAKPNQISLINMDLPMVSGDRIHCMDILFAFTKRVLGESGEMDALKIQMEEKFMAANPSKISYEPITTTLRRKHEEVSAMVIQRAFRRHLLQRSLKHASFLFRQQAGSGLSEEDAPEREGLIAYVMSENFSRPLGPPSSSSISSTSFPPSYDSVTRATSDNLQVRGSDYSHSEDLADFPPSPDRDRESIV
# experimental_details: Inhibition of human Nav1.5
assay_metric: IC50

Can you share its IC50? I mean this compound: CCn1c(-c2cc(N3CCN(C)CC3)cnc2[C@H](C)OC)c2c3cc(ccc31)-c1csc(n1)C[C@H](NC(=O)[C@H]1C[C@@H]1C)C(=O)N1CCC[C@H](N1)C(=O)OCC(C)(C)C2 > 30 µM

###

# experimental_details: Binding affinity to Cyclophilin A/Avi-tagged KRAS G12C mutant (1 to 169 residues) (unknown origin) assessed as dissociation constant by SPR analysis
# Set-up: species or system Homo sapiens
pKd: −log10 of the molar value.
assay_metric: pKd

CCn1c(-c2cccnc2[C@H](C)OC)c2c3cc(ccc31)-c1cccc(c1)C[C@H](NC(=O)[C@H](C(C)C)N(C)C(=O)[C@H]1CCN(C(C)=O)C1)C(=O)N1CCC[C@H](N1)C(=O)OCC(C)(C)C2	5.69

a. CCn1c(-c2cccnc2[C@H](C)OC)c2c3cc(ccc31)-c1csc(n1)C[C@H](NC(=O)[C@H](C(C)C)N(C)C(C)=O)C(=O)N1CCC[C@H](N1)C(=O)OCC(C)(C)C2
b. CCn1c(-c2cccnc2[C@H](C)OC)c2c3cc(ccc31)-c1cccc(c1)C[C@H](NC(=O)[C@H](C(C)C)N(C)C(C)=O)C(=O)N1CCC[C@H](N1)C(=O)OCC(C)(C)C2
Between item a and item b , which reported pKd is smaller? When you have decided, please share the label of that item. b
(b: 5.55, a: 5.81)
